Ref: PubChem BioAssay AID1159580

- EXPERIMENT_SUMMARY: chemical genetic growth profiling, strain panel (AID 1159580);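 note: tested at 20 µM; growth read once vehicle control cultures reached saturation at 30 °C; 1 = growth at the plate median or of vehicle wells; lower values mean less growth of the strain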
- RECORDED_CONDITIONS: S. cerevisiae deletion strains, growth OD, locus YGL086W, strain mad1, active compounds read low
Out of some 5,500 compounds screened, about 2,000 (36%) were called active. About 18% were inconclusive and are not listed. This is one part of the list.
Binarize normalized growth at 1; below is 1 (yes), at or above is 0 (no).

Cc1ccc(Cl)c(Nc2ccccc2C(=O)O)c1Cl
1 (yes)

With those in mind, consider the next compound.
Query block: Field: below-cutoff. Rule: recorded normalized growth strictly less than 1. Subject: C[C@@H]1C(=O)OC2[C@H](O)C34[C@@H]5OC(=O)[C@@]3(O[C@@H]3OC(=O)[C@H](O)[C@@]34[C@H](C(C)(C)C)[C@H]5O)[C@]21O (stereo not given in full)
Result block: 0 (no)

----------
- EXPERIMENT_SUMMARY: chemical genetic growth profiling, strain panel (AID 1159580)
- RECORDED_CONDITIONS: S. cerevisiae deletion strains, growth OD, locus YNL071W, strain lat1, active compounds read low
The whole screen tested about 5,500 compounds, of which about 2,000 (36%) were called active. Inconclusive results (about 18%) are left out. The list shows a part of the results.
normalized growth values, listed per item

For orientation, consider the following solved cases.
O=C(C1CCCCC1)N1CC(=O)N2CCc3ccccc3C2C1 (configuration not stated)
0.996 (inactive)
CCN(CC)CCOC(=O)c1ccc(N)cc1
0.966 (inactive)
CCCOc1ccc(C(=O)OCCN(CC)CC)cc1N
1 (inactive)
C=C1CCC(C2CC(=O)OC2=O)C(=O)CCC2C1CC2(C)C (configuration not stated)
1.01 (inactive)
CCCCC(=O)Oc1ccccc1C(=O)O
1 (inactive)
CCCCNc1ccc(C(=O)OCCN(C)C)cc1
1.02 (inactive)

# evaluate next
Query block: # get_value(readout='normalized growth', item= C=C1CCC2C(CC2(C)C)C(=O)CCC1O (configuration not stated) )
Result block: 0.992 (inactive)

----------
normalized growth values, listed per item
- EXPERIMENT_SUMMARY: chemical genetic growth profiling, strain panel (AID 1159580)
- RECORDED_CONDITIONS: S. cerevisiae deletion strains, growth OD, locus YER016W, strain bim1, active compounds read low
Screen size: about 5,500 compounds; about 2,000 (36%) were called active. Not shown: some 18% with an inconclusive outcome. Some of the results follow.

For orientation, consider the following solved cases.
CC1OC1P(=O)(O)O (centres undefined)
0.974 (inactive)
C[C@H]1COC2=C1C(=O)C(=O)c1c2ccc2c1CCCC2(C)C
0.666 (active)
COc1c2ccoc2c(OC)c2oc(=O)ccc12
0.99 (inactive)

Query block: # get_value(readout='normalized growth', item= CC(C(=O)O)c1ccc(C(=O)c2cccs2)cc1 (centres undefined) )
Result block: 1.02 (inactive)

Query block: Also need COC(=O)C(C)c1ccc(C(=O)c2cccs2)cc1 (centres undefined) , thanks.
Result block: 1 (inactive)

Query block: Also need Cc1coc2c1C(=O)C(=O)c1c-2ccc2c1CCCC2(C)C , thanks.
Result block: 0.926 (inactive)

Query block: Also need COc1c(OC)c2occc2c2oc(=O)ccc12 , thanks.
Result block: 0.984 (inactive)

Query block: Also need OC(Cn1cncn1)(Cn1cncn1)c1ccc(F)cc1F , thanks.
Result block: 1 (inactive)

Query block: Also need COC(=O)C(O)c1ccccc1 (centres undefined) , thanks.
Result block: 0.993 (inactive)

----------
- EXPERIMENT_SUMMARY: chemical genetic growth profiling, strain panel (AID 1159580)
- RECORDED_CONDITIONS: S. cerevisiae deletion strains, growth OD, locus YDL101C, strain DUN1
The whole screen tested about 5,500 compounds, of which about 2,000 (36%) were called active. Inconclusive results (about 18%) are left out. Cut-off read from the data, not from the text of the source: active = normalized growth mostly below about 0.91 (no sharp cut-off); inconclusive = no clear call, values can overlap the other calls; inactive = mostly above about 0.92. The list shows a part of the results.
Returns: one label drawn from active, inactive

Completed entries (count: 3):
C[N+]1(C)C2CC(OC(=O)[C@@H](CO)c3ccccc3)CC1C1OC12 (stereo partly specified)
inactive
CCCC(=O)O[C@]1(C(=O)CO)CCC2[C@@H]3CCC4=CC(=O)CC[C@]4(C)C3[C@@H](O)C[C@@]21C (stereo partly specified)
inactive
Cc1cccc(C)c1NC1=NCCCS1
inactive

Query block: I'd appreciate the recorded outcome for C=C1C(=O)O[C@@H]2C3O[C@]3(C)CC/C=C(\C)CC[C@@H]12 (stereo partly specified) from this test.
Result block: active

Query block: Also need CC(=O)N[C@@H](CS)C(=O)O , thanks.
Result block: inactive

Query block: Also need OC(=Cc1nc2ccccc2nc1C=C(O)c1ccc(Cl)cc1)c1ccc(Cl)cc1 , thanks.
Result block: inactive

Query block: Also need Cc1ccc(-n2cccc2)c(NC(=S)Nc2ccc(Br)cc2OC(F)(F)F)c1 , thanks.
Result block: inactive

Query block: Also need CC(=O)OC1CCC2(C)C(=CC=C3C2CCC2(C)C3CCC2C(C)/C=C/C(C)C(C)C)C1(C)C (stereo unspecified) , thanks.
Result block: inactive

Query block: Also need O=c1[nH]oc2c1CCNC2 , thanks.
Result block: inactive

Query block: Also need COCCCNC(=S)Nc1ccc(C)cc1C , thanks.
Result block: inactive

Query block: Also need Clc1cccc(Cl)c1NC1=NCCN1 , thanks.
Result block: inactive

----------
normalized growth values, listed per item
- EXPERIMENT_SUMMARY: chemical genetic growth profiling, strain panel (AID 1159580);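 note: tested at 20 µM; growth read once vehicle control cultures reached saturation at 30 °C; 1 = growth at the plate median or of vehicle wells; lower values mean less growth of the strain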
- RECORDED_CONDITIONS: S. cerevisiae deletion strains, growth OD, locus YML124C, strain tub3, active compounds read low
Hit rate of the full screen: of about 5,500 compounds, about 2,000 (36%) were called active. Not shown: some 18% with an inconclusive outcome. This is one part of the list.
Give the figure only, with no unit attached.

C=C1CCC(=O)C(C)CCC2C1CC2(C)C (stereo not drawn)
0.995

Query block: # get_value(readout='normalized growth', item= Cc1ccc(C)c(OCCCC(C)(C)C(=O)O)c1 )
Result block: 0.934

Query block: Also need O=C(O)c1cc2cc(Cc3cccnc3)ccc2o1 , thanks.
Result block: 0.994

Query block: Also need C=CCSCC1Nc2cc(Cl)c(S(N)(=O)=O)cc2S(=O)(=O)N1 (stereo not drawn) , thanks.
Result block: 1.02

Query block: Also need CC(C)[C@@H]1CC[C@@H](C)C[C@H]1O , thanks.
Result block: 1.02

----------
- EXPERIMENT_SUMMARY: chemical genetic growth profiling, strain panel (AID 1159580);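 note: tested at 20 µM; growth read once vehicle control cultures reached saturation at 30 °C; 1 = growth at the plate median or of vehicle wells; lower values mean less growth of the strain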
- RECORDED_CONDITIONS: S. cerevisiae deletion strains, growth OD, strain wtn01, active compounds read low
The whole screen tested about 5,500 compounds, of which about 2,000 (36%) were called active. Another 18% or so got no clear call; they are omitted. The list shows a part of the results.
normalized growth values, listed per item
Give the figure only, with no unit attached.

For orientation, consider the following solved cases.
O=C1OC(c2ccc(O)cc2)(c2ccc(O)cc2)c2ccccc21
0.954
C=C1C(=O)O[C@@H]2C3O[C@]3(C)CC/C=C(\C)CC[C@@H]12 (stereo not given in full)
0.786

Query block: # get_value(readout='normalized growth', item= C=C1C(=O)OC2CC1C(OC(C)=O)C/C(C)=C/CC/C(C)=C/CC[C@]2(C)O (stereo not given in full) )
Result block: 1.02

Query block: Also need COc1ccc2c(c1OC)C(=O)OC2[C@H]1c2c(cc3c(c2OC)OCO3)CCN1C (stereo not given in full) , thanks.
Result block: 0.967

Query block: Also need Oc1ccc2c(c1)OCC1c3cc4c(cc3OC21)OCO4 (stereo not given) , thanks.
Result block: 0.943

----------
- EXPERIMENT_SUMMARY: chemical genetic growth profiling, strain panel (AID 1159580);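 note: tested at 20 µM; growth read once vehicle control cultures reached saturation at 30 °C; 1 = growth at the plate median or of vehicle wells; lower values mean less growth of the strain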
- RECORDED_CONDITIONS: S. cerevisiae deletion strains, growth OD, locus YLR039C, strain RIC1, active compounds read low
The whole screen tested about 5,500 compounds, of which about 2,000 (36%) were called active. Not shown: some 18% with an inconclusive outcome. Some of the results follow.
normalized growth values, listed per item
Give the figure only, with no unit attached.

For orientation, consider the following solved cases.
COc1cc2c(cc1OC)C1Cc3ccc(OC)c(OC)c3CN1CC2 (stereo unspecified)
0.979
CC1C[C@H]2CC(=O)[C@H]3CCCN4CCC[C@H]2[C@]34C1 (stereo partly specified)
1.04
Nc1ccc(C(=O)/C(=C\c2cccc([N+](=O)[O-])c2)C(=O)c2ccc(-c3ccccc3)cc2)cc1
1
COC(=O)C(C)c1ccc(C(=O)c2cccs2)cc1 (stereo unspecified)
0.862
C=C1C(=O)O[C@@H]2C[C@@]3(C)CCC[C@H](C)C3=C[C@H]12
0.221

# evaluate next
Query block: # get_value(readout='normalized growth', item= CC(=O)CC(=O)Nc1ccccc1Cl )
Result block: 0.993
